ASSAY_PROCEDURE: NCI Yeast Anticancer Drug Screen. Data for the cln2 rad14 strain (AID 165);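 note: 0% = growth equal to vehicle treated cultures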
MEASUREMENT_CONDITIONS: S. cerevisiae cln2 rad14 strain, at 50.0 µM, hits give high values
This is part of a sample that, as a whole, favours compounds with a hit. Of some 79,000 tested, about 15% had one in any assay.
READOUT_LABEL: growth inhibition (%)
State the answer as a number, implicitly in %.

Answered examples (4):
molecule=CC(=O)Nc1ncc(CCC2OCCO2)c(=O)[nH]1 observed=-0.25
molecule=O=C(CCCCC(=O)Oc1ccc([N+](=O)[O-])cc1)Oc1ccc([N+](=O)[O-])cc1 observed=32
molecule="O=S(CC(O)(c1ccccc1)c1ccccc1)c1ccccc1 (stereo not given)" observed=36.2
molecule=CCCCOC(=O)c1ccc(NC(=O)Nc2ccc([N+](=O)[O-])cc2OC)cc1 observed=50.7

Request: Given `Cc1[nH]n(C(=O)c2ccc(Cl)cc2)c(=O)c1/C=C1\C(O)=CC(=O)c2ccccc21` , state its recorded growth inhibition.
Result: -19.6

Request: Name the recorded growth inhibition for `COc1ccc(C2CC(=O)N(c3ncccc3C)C(=O)C2)cc1` .
Result: -21.1

Request: # growth inhibition lookup, item `CC(=O)CC(=O)CCCCC(=O)O`
Result: -22.6

Request: Looking for the measured growth inhibition of `CCOC(=O)C(C#N)(CCC#N)CCC#N` , can you help?
Result: -3.45

Request: Param item = `CC(=O)C(C)(C)OC(=O)COc1ccc(Cl)cc1` ; retrieve measured growth inhibition.
Result: 43.4

Request: Please look up its growth inhibition: CN(C)C(=O)/C=C/C(=O)O (tested in a mixture with another compound)
Result: 7.65

Request: Give its growth inhibition value. Item: `O=C(NNC1=NCCCCN1)Nc1ccc(Cl)cc1`
Result: 7.4

Request: Need growth inhibition, item `OCCOc1ccc(OCCO)cc1`
Result: -39.7

Request: Look at this molecule and give its reported growth inhibition. O=[N+]([O-])c1ccc(S(=O)c2ccc(Cl)cc2)c2c1no[n+]2[O-] (stereo not given)
Result: 32

Request: Could you share which growth inhibition value was measured for `CC1(C)CC(=O)C(/C=N/C(=S)NCCc2ccccc2)=C(O)C1` ?
Result: -2.85

Request: Request the reported growth inhibition associated with `CC(=O)Nc1ccc2c(c1)C(=O)c1cc(Cl)ccc1-2`
Result: -28.1

Request: State the recorded growth inhibition for this entry: CC(C)N1CCC(OC(=O)Nc2ccccc2)C1 (stereo not given)
Result: -27.1

Request: Request the reported growth inhibition associated with `Nc1nc(N)c(N=Nc2ccc(S(=O)(=O)O)cc2)c(N)n1`
Result: -21.1

Request: State the recorded growth inhibition for this entry: CC(CS(C)(=O)=O)S(=O)(=O)O (stereo not given)
Result: -0.3

Request: Given the molecule C/C=C(/C)C(=O)OC1CC(C)=CC(OC(=O)/C(C)=C\C)[C@]2(C)C1[C@](O)(C(C)C)C[C@H]2OC(C)=O (stereo not given in full) , what is its reported growth inhibition?
Result: 30.2

Request: What value of growth inhibition has been recorded for this entry: CC(Cc1ccccc1)NC(=O)CCCN1C(=O)c2ccccc2C1=O (stereo not given)
Result: -37.8

Request: Need growth inhibition of `CCCCOS(=O)OCCCC` , thanks.
Result: 13.2

Request: For the molecule shown here, `CCNC1(C(=O)O)CCCCC1` , give the reported growth inhibition.
Result: 9.85

====

ASSAY_PROCEDURE: NCI Yeast Anticancer Drug Screen. Data for the rad50 strain (AID 155);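 note: 0% = growth of vehicle-only cultures of the same strain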
MEASUREMENT_CONDITIONS: S. cerevisiae rad50 strain growth inhibition; at 50.0 µM; hits give high values
About 79,000 compounds went through this panel and 15% of them were active in at least one assay; those are over-represented in the sample as a whole.
Below, each entry is listed alongside its reported growth inhibition.
Note: unit % is implicit; provide only the numeric part.

molecule=C[C@]12CC[C@@H]3c4ccc(OCCCO)c([N+](=O)[O-])c4CC[C@H]3[C@@H]1CCC2=O observed=16.3
molecule=CC(=O)[C@H]1CC[C@H]2[C@@H]3CC[C@H]4C[C@@H](OC(c5ccccc5)(c5ccccc5)c5ccccc5)CC[C@]4(C)[C@H]3CC[C@]12C observed=-3.55
molecule=O/N=C(/CN1CCOCC1)c1ccccc1 observed=-7.25
molecule=CC/C(=C\c1ccccc1OC)c1ccncc1 observed=14.2
molecule=BrCCOc1ccccc1 observed=19.4

Request: Requested field: growth inhibition. Item: `COc1ccc(N2C=Nn3c(nc4sc5c(c4c3=O)CCCC5)C2)cc1`
Result: 9.55

Request: State the recorded growth inhibition for this entry: `FC(F)C(F)(F)N1c2ccccc2Sc2ccccc21`
Result: 27.6

Request: Fill in the blank: the reported growth inhibition of `Nc1[nH]c(=S)[nH]c(=O)c1NS(=O)(=O)c1ccccc1` is ____.
Result: 3.65

Request: Look up growth inhibition: `COC(=O)CC1(CC(=O)O)SCCS1`
Result: -13.6

Request: Request the reported growth inhibition associated with `Cc1ccc(C(=O)OC[C@H]2CC[C@@H](n3cc(N(C)C4CCCCC4)c(=O)[nH]c3=O)O2)cc1`
Result: 2.4

Request: Name the reported growth inhibition value associated with the molecule CC1(C)CCCC2(C)C(C(=O)O)C3CCC45OC3(CC12)OC(=O)C4C1(C)CCCC(C)(C)C1CC5=O (stereo unspecified)
Result: 2.15

Request: Sample CC1(C)OCC(C2OC3OC(C)(C)OC3C2c2ccccc2)O1 (stereo unspecified) — what was its growth inhibition?
Result: -3.55

Request: Please report the recorded growth inhibition for `O=C1C=C(Nc2ccccc2C(=O)CC(=O)C(=O)Nc2ccc(Cl)c(Cl)c2)c2ccccc2C1=O` .
Result: -14.1

Request: Requested field: growth inhibition. Item: c1ccc2c(c1)CC1c3ccccc3CC21 (stereo unspecified)
Result: -1.2

Request: Form field: reported growth inhibition of `CN(C)C=Nc1ccc([N+](=O)[O-])cc1`
Result: -7.7

====

ASSAY_PROCEDURE: NCI Yeast Anticancer Drug Screen. Data for the mec2-1 strain (AID 157)
MEASUREMENT_CONDITIONS: S. cerevisiae mec2-1 strain, at 50.0 µM, hits give high values
About 79,000 compounds went through this panel and 15% of them were active in at least one assay; those are over-represented in the sample as a whole. Activity calls are given as the source filed them. No stated cut-off is given here; in the data, active means growth inhibition above about 70%; inactive means the rest.
Item-by-item account of growth inhibition

Solved cases (5 shown):
compound="CC1=C(C(=O)OCCO[N+](=O)[O-])C(c2ccccc2C(F)(F)F)C(C(=O)OC(C)C)=C(C)N1 (stereo not drawn)" observed="17.4% (inactive)"
compound=O=C(Nc1cccc(C(=O)NCCCO)c1)/C(=C/c1ccccc1)NC(=O)c1ccccc1 observed="-1.85% (inactive)"
compound=Oc1ccc2ccccc2c1C=NCCS observed="6.25% (inactive)"
compound=O=C(Nc1ccc2c(c1)Cc1ccccc1-2)C(Cl)Cl observed="1.95% (inactive)"
compound=Cc1csc(NNC(N)=O)n1 observed="-8.05% (inactive)"

Request: Name the recorded growth inhibition for `O=C1OC(=O)C2=C1CCCC2` .
Result: -18.9% (inactive)

Request: Please report the recorded growth inhibition for CC(=O)c1cccc(NC(=O)N2CCCCC2C)c1 (stereo not drawn) .
Result: 29.9% (inactive)

Request: Data request, read-out growth inhibition, for `CC(=O)n1c(=O)c2cc3c(=O)n(-c4cccc(C#N)c4)c(=O)c3cc2c1=O`
Result: -19.4% (inactive)

Request: Any idea what its growth inhibition is? The compound is `CC(=O)Nc1ccc(S(=O)(=O)NC(=O)NC(C)C)cc1`
Result: -26.4% (inactive)

Request: Item under review: CC(C)(C)OC(=O)NC(CSCc1ccc(C(=O)c2ccccc2)cc1)C(=O)O (stereo not drawn) . Reported growth inhibition?
Result: -28.1% (inactive)

Request: Can you look up the measured growth inhibition of `CN1C(=O)C(=O)OC1=C(c1ccccc1)c1ccccc1` for me?
Result: -4.6% (inactive)

Request: What value of growth inhibition has been reported for the following compound? `COC(=O)NC1CCCCC1`
Result: -13.8% (inactive)

Request: Recorded growth inhibition for `O=Cc1cc2ccccc2c2ccccc12` , please?
Result: -24% (inactive)

====

ASSAY_PROCEDURE: NCI Yeast Anticancer Drug Screen. Data for the bub3 strain (AID 167)
MEASUREMENT_CONDITIONS: S. cerevisiae bub3 mutant strain, at 50.0 µM, hits give high values
The panel holds about 79,000 compounds, 15% with a hit somewhere; the sample as a whole holds those more often. Activity calls are given as the source filed them. Rule as the data show it: active = growth inhibition above about 70%; inactive = the rest.
Measured growth inhibition values are reported for all entries that follow.

Some entries whose results are on file:
compound=CC(=O)c1cc2c(Br)cccc2oc1=O readout_label="growth inhibition" observed="-42.9% (inactive)"
compound=O=C(C#Cc1ccccc1)[O][Sn]([c]1ccccc1)([c]1ccccc1)[c]1ccccc1 readout_label="growth inhibition" observed="99.1% (active)"
compound=NC(=O)c1ccccc1N=NNc1ccccc1 readout_label="growth inhibition" observed="-25.1% (inactive)"

Now look at this one.
Request: Name the recorded growth inhibition for `O=C(Nc1ccc(S(=O)(=O)N2CCCCC2)cc1)OC1CCCCC1` .
Result: 30.9% (inactive)
